Assay: SGF digest of 168 nutritive polypeptide library, intact protein by LC-MS/MS
Format: in vitro ADME
Details: 168 nutritive polypeptide library SGF digest, LC-MS/MS spectral counts
measure: % Intact Protein at 10 min (%)
A number alone suffices; assume %.

Respond only with % Intact Protein at 10 min recorded for SEQID-00618: protein of the 168 nutritive polypeptide library (protein, Glycine max, protein of the 168 nutritive polypeptide library) MDAGGKIKKGAGGRKGGGPKKKPVSRSVKAGLQFPVGRIGRYLKKGRYAQRVGTGAPVYLAAVLEYLAAEVLELAGNAARDNKKNRIIPRHVLLAVRNDEELGKLLAGVTIAHGGVLPNINPVLLPKKTERASKEPKSPSKATKSPKKA 0

Respond only with % Intact Protein at 10 min recorded for SEQID-00532: protein of the 168 nutritive polypeptide library (protein, Arthrospira platensis NIES-39, protein of the 168 nutritive polypeptide library) MSIAVGMIETIGFPAVVEAADSMVKAARVTLVGYEKIGSGRVTVIVRGDVSEVQASVSAGIESVKRVNGGEVSSTHIIARPHENLEYVLPIRYTDAVEQFRSY 0

Respond only with % Intact Protein at 10 min recorded for SEQID-00632: protein of the 168 nutritive polypeptide library (protein, listed as Saccharomyces cerevisiae, source: /note="strain ATCC 204508 / S288c", protein of the 168 nutritive polypeptide library) MSTVTKYFYKGENTDLIVFAASEELVDEYLKNPSIGKLSEVVELFEVFTPQDGRGAEGELGAASKAQVENEFGKGKKIEEVIDLILRNGKPNSTTSSLKTKGGNAGTKAYN 1.2
